Source listed as patent US20020035061A1.

# Test system: S. marcescens
# Type: cell-based
# Test Parameters: S. marcescens strain SMS003
Let's look at some sequences and their measured MIC.

Consider the following illustrative entries.
Sequence Content: ILKKFPWFPWRRK [MBI 11A6CN]
Study Target: S. marcescens
MIC: >128 µg/mL

Sequence Content: ILKWPWWPWRK [MBI 11B5CN]
Study Target: S. marcescens
MIC: >128 µg/mL

Sequence Content: KRRWPWWPWRLI [MBI 11B7CNR]
Study Target: S. marcescens
MIC: >128 µg/mL

Sequence Content: KRRWVWWVWRLI [MBI 11F4CNR]
Study Target: S. marcescens
MIC: >128 µg/mL

Sequence Content: ILKKWWWPWRRK [MBI 11G4CN]
Study Target: S. marcescens
MIC: >128 µg/mL

Sequence Content: LKKWPWWPWRRK [MBI 11D1CN]
Study Target: S. marcescens
MIC: >128 µg/mL

Sequence Content: ILRNPNNPNRRK [MBI 11B7CNF12]
Study Target: S. marcescens
MIC: >128 µg/mL

Sequence Content: ILRYVYYVYRRK [MBI 11A8CN]
Study Target: S. marcescens
MIC: >128 µg/mL

Sequence Content: ILWPWWPWRRK [MBI 11B8CN]
Study Target: S. marcescens
MIC: >128 µg/mL

Sequence Content: ILRRNPNNPNRRK [MBI 11B1CNW1]
Study Target: S. marcescens
MIC: >128 µg/mL

Briefly, MIC measured for ILKKNPNNPRRK [MBI 11G6ACN] : >128 µg/mL

Briefly, MIC measured for ILKKWPWWPRRK [MBI 11G6CN] : >128 µg/mL

Briefly, MIC measured for ILKKWPWWPWRRK [MBI 11E1CN] : >128 µg/mL

Briefly, MIC measured for ILKKFPFWPWRRK [MBI 11A7CN] : >128 µg/mL

###

# Test system: S. aureus
# Format: cell-based
# Test Parameters: agarose dilution; S. aureus MRSA9
Let's look at some sequences and their measured Peptide MIC values.
Give your result in µg/mL as a bare value.

Peptide MIC values for S. aureus with input ILKKYPYYPYRRK [MBI 11A3CN] equals 128

Peptide MIC values for S. aureus with input ILKKFPFFPFRRK [MBI 11A1CN] equals 8

Peptide MIC values for S. aureus with input ILKKWPWWPWRK [MBI 11B4CN] equals 4

Peptide MIC values for S. aureus with input ILKKWVWWVWRRK [MBI 11F1CN] equals 2

Peptide MIC values for S. aureus with input ILKKWPWWPWRRK [MBI 11CN] equals 2

Peptide MIC values for S. aureus with input ILKKWPWWPWK [MBI 11G13CN] equals 8

Peptide MIC values for S. aureus with input ILWPWWPWRRK [MBI 11B8CN] equals 2

Peptide MIC values for S. aureus with input ILPWKWPWWPWRR [MBI 10CN] equals 1

###

Let's look at some sequences and their measured Peptide MIC Alone.
# Test system: bacterial isolates
# Assay Summary: microbe, parasite or virus in culture
# Assay type: cell-based
# Test Parameters: 1. Amikacin; A. baumannii ABI003
Give your result in µg/mL as a bare value.

Sequence Content: ILRWPWWPWRRKIMILKKAGS [MBI 11B16CN]
Assay Value: 16

Briefly, Peptide MIC Alone measured for KWKSFIKKLTSAAKKVVTTAKPLISS [MBI 26] : 8

Briefly, Peptide MIC Alone measured for KWKLFIKKLTPAVKKVLLTGLPALIS [MBI 29F1] : 4

Briefly, Peptide MIC Alone measured for KKWWRRALQGLKTAGPAIQSVLNK [MBI 21A2] : 8

###

# Test system: E. faecalis
# Assay type: cell-based
# Test Parameters: E. faecalis EFS004
Reported Property: MIC

Consider the following illustrative entries.
Sequence Content: ILKKFPWFPWRRK [MBI 11A6CN]
Reported Property: MIC
Assay Value: 64 µg/mL
//
Sequence Content: ILKKWPWWPWRRK [MBI 11ACN]
Reported Property: MIC
Assay Value: 8 µg/mL
//
Sequence Content: ILKKNPNNPNRRK [MBI 11CNY1]
Reported Property: MIC
Assay Value: >64 µg/mL
//
Sequence Content: ILKKNPNNPARRK [MBI 11CNX1]
Reported Property: MIC
Assay Value: 16 µg/mL

Please examine the following record next.
MIC for E. faecalis with input ILPWKWPWWPWRR [MBI 10] equals 8 µg/mL

###

# Tested on: PBL, peripheral blood lymphocytes
# Assay Summary: Cell death by Cytotox (Promega) lactate dehydrogenase release
# Assay type: cell-based
# Test Parameters: LDH release
# Description: In addition, APO-peptides and parent peptides are tested against a panel of cancer cell lines. Cell death is measured using the Cytotox (Promega) assay kit which measures the release of lactate dehydrogenase. […]
Let's look at some sequences and their measured LC50 ± S.E., PBL.
Give your result in µg/mL as a bare value.

Briefly, LC50 ± S.E., PBL measured for ILKKWPWWPWRRK [MBI 11CN] : 57

Briefly, LC50 ± S.E., PBL measured for ILKKWPWWPWRRK [MBI 11E3CN] : 22

Briefly, LC50 ± S.E., PBL measured for ILRWPWWPWRRK [MBI 11B7CN] : 24

###

# Test system: K. pneumoniae
# Format: cell-based
# Test Parameters: K. pneumoniae strain KP001
Reported Property: MIC

Sequence Content: ILKKWAWWPWRRK [MBI 11C3CN]
Assay Value: 128 µg/mL
//
Sequence Content: ILKKWPWPWRRK [MBI 11A4CN]
Assay Value: >128 µg/mL
//
Sequence Content: ILKKNPNNPNRK [MBI 11B4ACN]
Assay Value: 32 µg/mL
//
Sequence Content: ILKWPWWPWRK [MBI 11B5CN]
Assay Value: 16 µg/mL
//
Sequence Content: ILKKWPWW PWKKK [MBI 11B10CN]
Assay Value: 32 µg/mL
//
Sequence Content: KRRWVWWVWRLI [MBI 11F4CNR]
Assay Value: 32 µg/mL

Briefly, MIC measured for ILRYVYYVYRRK [MBI 11A8CN] : 128 µg/mL

###

# Test system: microorganisms with acquired resistance
# Assay Summary: microbe, parasite or virus in culture
# Format: cell-based
# Test Parameters: P. aeruginosa 23
Reported Property: Peptide MIC + Piperacillin (µg/mL)
Give your result in µg/mL as a bare value.

Consider the following illustrative entries.
Sequence Content: ILRWVWWVWRRK [MBI 11F4CN]
Reported Property: Peptide MIC + Piperacillin
Assay Value: 4
--
Sequence Content: ILKKWPWWPWRRK [MBI 11CN]
Reported Property: Peptide MIC + Piperacillin
Assay Value: 4
--
Sequence Content: ILKKWPWWPWRRK [MBI 11E3CN]
Reported Property: Peptide MIC + Piperacillin
Assay Value: 1
--
Sequence Content: ILKKWPWWPWRR [MBI 11G7CN]
Reported Property: Peptide MIC + Piperacillin
Assay Value: 1
--
Sequence Content: ILKKWVWWPWRRK [MBI 11F3CN]
Reported Property: Peptide MIC + Piperacillin
Assay Value: 0.5

Briefly, Peptide MIC + Piperacillin measured for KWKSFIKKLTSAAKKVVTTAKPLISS [MBI 26] : 32

###

# Test system: S. maltophilia
# Format: cell-based
# Test Parameters: S. maltophilia strain SMA001
Reported Property: MIC

Consider the following illustrative entries.
Sequence Content: ILKKPWWPWRRK [MBI 11G3CN]
Reported Property: MIC
Assay Value: >128 µg/mL
//
Sequence Content: ILKKIPIIPIRRK [MBI 11A2CN]
Reported Property: MIC
Assay Value: >128 µg/mL
//
Sequence Content: ILKNPNNPWRR [MBI 11G7ACN]
Reported Property: MIC
Assay Value: 32 µg/mL
//
Sequence Content: ILKKWPWWPRRK [MBI 11G6CN]
Reported Property: MIC
Assay Value: >128 µg/mL
//
Sequence Content: ILKKYPYYPYRRK [MBI 11A3CN]
Reported Property: MIC
Assay Value: >128 µg/mL
//
Sequence Content: IKKWPWWPWRRK [MBI 11G2CN]
Reported Property: MIC
Assay Value: >128 µg/mL

Please examine the following record next.
Briefly, MIC measured for ILKKWPWWPWRRK [MBI 11E2CN] : 64 µg/mL

###

# Tested on: K. pneumoniae
# Assay type: cell-based
# Test Parameters: K. pneumoniae strain KP001
Reported Property: MIC (µg/mL)
Give your result in µg/mL as a bare value.

Consider the following illustrative entries.
Sequence Content: ILRRVJPWWPWRRR [MBI 11B9CN]
Assay Value: 32

Sequence Content: ILRWPWWPWRRKMILKKAGS [MBI 11B17CN]
Assay Value: 16

Sequence Content: ILKKWPWWPWRR [MBI 11G7CN]
Assay Value: 16

Sequence Content: ILRWPWWPWWPWRRK [MBI 11A9CN]
Assay Value: 32

Sequence Content: KRRWPWWPWRLI [MBI 11B7CNR]
Assay Value: 8

Sequence Content: ILRRNPNNPNRRK [MBI 11B1CNW1]
Assay Value: 32

Sequence Content: ILKKFPFWPWRRK [MBI 11A7CN]
Assay Value: 8

Briefly, MIC measured for WWRWPWWPWRRK [MBI 11A10CN] : 16
